- SYSTEM_UNDER_TEST: Dihydroorotate dehydrogenase (quinone), mitochondrial (Plasmodium falciparum (isolate 3D7))
- ASSAY_COMMENT: inhibition of P. falciparum DHODH – biochemical, C-terminal His tag, absorbance 600 nm, primary screen (AID 1175);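 also: recombinant parasite enzyme with a five histidine tag at its C terminus; test concentration not given here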
- MEASUREMENT_CONDITIONS: PfDHODH enzyme, DCIP absorbance 600 nm; higher = more signal, called active from +8 up or from −8 down
I would appreciate it if you labelled entries true (1) when composite z-score is -0.6 or higher, otherwise false (0).

**Query** Item COC(=O)[C@@]1(Cc2ccc(OC)cc2)[C@H]2c3cc(C(=O)N(C)C)n(Cc4ccc(C(F)(F)F)nc4)c3C[C@H]2CN1C(=O)c1ccccc1 with composite z-score of -0.6 or above?
**Result** true (1)

**Query** Item COCCCNC(=O)[C@@H]1c2ccccc2C(=O)N(Cc2ccccc2)[C@H]1c1ccc(CO)cc1 with composite z-score of -0.6 or above?
**Result** false (0)

**Query** Item Cc1ccc([C@H]2C(C(=O)O)=CCN2S(=O)(=O)c2ccc(C)cc2)cc1 with composite z-score of -0.6 or above?
**Result** true (1)

**Query** Item CC(C)(C)OC(=O)CC[C@]1(C(N)=O)N=C(c2ccc(OCCCO)cc2)O[C@H]1c1ccccc1 with composite z-score of -0.6 or above?
**Result** true (1)

**Query** Item C=CCOC(=O)[C@H]1[C@@H]2C(=O)O[C@@H](c3ccccc3)[C@@H](c3ccccc3)N2[C@@H](c2ccc(OCCOC(=O)[C@H]3C[C@H]4C(=O)N[C@@H](CCCCN(C)C)C(=O)N4[C@H]3c3cccc(OCCO)c3)cc2)[C@]12C(=O)Nc1ccc(I)cc12 with composite z-score of -0.6 or above?
**Result** true (1)

**Query** Item COCC(=C=CC[C@@H](O)c1ccc(OCCO)cc1)C[C@@H](O)c1ccccn1 with composite z-score of -0.6 or above?
**Result** false (0)

**Query** Item COc1ccc(C(O)C2C=CC3C(=O)N(C)C(=O)C3N2NC(=O)OC(C)(C)C)c2ccccc12 (stereo not given) with composite z-score of -0.6 or above?
**Result** true (1)

**Query** Item CCOC(=O)C[C@H]1[C@H](OC(=O)c2ccc(C(=O)c3ccccc3)cc2)[C@@H](NC(=O)c2ccccc2)c2cc(OCCCO)ccc2N1C(=O)c1ccccc1 with composite z-score of -0.6 or above?
**Result** true (1)

**Query** Item C=CC1c2cc(O)c(OC)cc2CCN1Cc1cccc(OC(F)(F)F)c1 (stereo not given) with composite z-score of -0.6 or above?
**Result** false (0)

**Query** Item O=C1C2C=CC(C(O)COCc3ccccc3)N(Nc3ccc([N+](=O)[O-])cc3)C2C(=O)N1c1ccccc1 (stereo not given) with composite z-score of -0.6 or above?
**Result** true (1)

**Query** Item O=C1C2C=CC(C(O)c3ccc(F)cc3)N(Nc3ccc([N+](=O)[O-])cc3)C2C(=O)N1c1ccccc1 (stereo not given) with composite z-score of -0.6 or above?
**Result** true (1)

**Query** Item COC(=O)C(CC#Cc1ccc2c(c1)[C@]1(C(=O)N2)[C@H](c2ccc(O)cc2)N2[C@H](c3ccccc3)[C@H](c3ccccc3)OC(=O)[C@H]2[C@@H]1C(=O)N1CCN(c2ncccn2)CC1)C(=O)OC with composite z-score of -0.6 or above?
**Result** true (1)

**Query** Item COc1cc2c(cc1O)C(c1cccs1)N(Cc1ccc([N+](=O)[O-])o1)CC2 (stereo not given) with composite z-score of -0.6 or above?
**Result** false (0)

**Query** Item O=C1OCC=C[C@H]2OC34C=CCN(Cn5nnc6ccccc65)C(=O)[C@H]3N(CCCCCO)C(=O)[C@@H]4[C@@H]12 (stereo not given in full) with composite z-score of -0.6 or above?
**Result** false (0)

**Query** Item O=C1O[C@H](c2ccccc2)[C@H](c2ccccc2)N2[C@H]1[C@@H](C(=O)N1CCN(c3ncccn3)CC1)[C@]1(C(=O)Nc3ccc(C#CC4=CCCCC4)cc31)[C@H]2c1ccccc1OCCO with composite z-score of -0.6 or above?
**Result** true (1)

----------
For each of the compounds below, state its composite z-score.
- System: Human papillomavirus type 1a protein E7 (residues 44-93)
- ASSAY_COMMENT: small molecules binding HPV E7 44-93 – biochemical, small-molecule microarray, residues 44-93, 635 nm fluorescence, primary screen (AID 1108);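 also: E7 fragment applied at 1 µg/mL in TBST for 1 h at 4 C; score combines spot fluorescence with its signal to noise ratio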
- MEASUREMENT_CONDITIONS: fluorescence 635 nm, higher = more signal
No unit in the answer, please; the number alone is enough.

**Query** Provide one value: measured composite z-score of [N-]=[N+]=Nc1ccccc1C[C@@]1(C(=O)N2CCCCC2)N=C(c2ccc(OCCCO)cc2)O[C@@H]1c1ccccc1N=[N+]=[N-]
**Result** 0.869

**Query** Provide one value: measured composite z-score of C=C[C@H](C)[C@@H](OC(=O)Nc1ccc(SC)cc1)c1ccc(O)c2ccccc12
**Result** 1.41

**Query** Provide one value: measured composite z-score of [N-]=[N+]=NCc1ccccc1C[C@@]1(C(=O)NCC(O)CO)N=C(c2ccc(OCCCO)cc2)O[C@@H]1c1ccccc1 (some centres not stated)
**Result** 1.03

**Query** Provide one value: measured composite z-score of C=C(CCCC)/C(=C/C[C@H](OC(C)=O)c1ccccc1OCCO)c1cnc2ccccc2c1
**Result** 0.984

**Query** Provide one value: measured composite z-score of C=C(CCCC)/C(=C/C[C@@H](OC(C)=O)c1ccccc1OCCO)c1cc(C(=O)OC)ccc1OC
**Result** 0.129

**Query** Provide one value: measured composite z-score of COC(=O)C(CC#Cc1ccc2c(c1)[C@]1(C(=O)N2)[C@H](c2ccccc2OCCO)N2[C@H](c3ccccc3)[C@H](c3ccccc3)OC(=O)[C@H]2[C@@H]1C(=O)O)C(=O)OC
**Result** 1.43

**Query** Provide one value: measured composite z-score of O=C1[C@H]2C=C(Br)[C@H](C[C@@H]2OCCCCCCO)[C@@]12CO2
**Result** -1.01

**Query** Provide one value: measured composite z-score of C=CC[C@]12N=C(c3ccc(OCCCO)cc3)O[C@H]1c1ccccc1N(CCS(=O)(=O)c1ccccc1)C2=O
**Result** 1.41

**Query** Provide one value: measured composite z-score of [N-]=[N+]=NCc1ccccc1[C@H]1OC(c2ccc(OCCCO)cc2)=N[C@@]1(Cc1ccccc1)C(=O)N1CCCCC1
**Result** 1.37

**Query** Provide one value: measured composite z-score of COc1ccc(-c2cc3c(c(Cc4ccccc4)n2)[Si](C(C)C)(C(C)C)OC3)cn1
**Result** -0.864

**Query** Provide one value: measured composite z-score of COCCCNC(=O)[C@@]1(CCS(=O)(=O)c2ccccc2)N=C(c2ccc(OCCCO)cc2)O[C@H]1c1ccccc1N=[N+]=[N-]
**Result** 1.48

**Query** Provide one value: measured composite z-score of CN1C(=O)C2C=CC(C(O)c3ccc(F)cc3)N(N(c3ccccc3)c3ccccc3)C2C1=O (configuration not stated)
**Result** 1.11

**Query** Provide one value: measured composite z-score of CC(=O)Nc1cc(Br)ccc1C(=O)NCc1ccccc1
**Result** 1.09

**Query** Provide one value: measured composite z-score of NC(=O)[C@@H]1[C@H]2C(=O)O[C@H](c3ccccc3)[C@H](c3ccccc3)N2[C@H](c2ccc(O)cc2)[C@@]12C(=O)Nc1ccc(C#CC3=CCCCC3)cc12
**Result** 1.42

**Query** Provide one value: measured composite z-score of O=c1cccc(-c2ccccc2Cl)o1
**Result** 0.201

**Query** Provide one value: measured composite z-score of NC(=O)[C@@H]1[C@H]2C(=O)O[C@H](c3ccccc3)[C@H](c3ccccc3)N2[C@H](c2ccc(OCCO)cc2)[C@@]12C(=O)Nc1ccc(C#CC3=CCCCC3)cc12
**Result** 1.36

**Query** Provide one value: measured composite z-score of O=C1C2C=CC(C(O)c3c(F)cccc3Cl)N(Nc3ccccc3F)C2C(=O)N1c1ccccc1 (configuration not stated)
**Result** 1.43

----------
For each of the compounds below, state its composite z-score.
- SYSTEM_UNDER_TEST: Torsin-1A-interacting protein 2 (Homo sapiens) (UniProt Q8NFQ8)
- Sequence (Q8NFQ8 whole entry, looked up): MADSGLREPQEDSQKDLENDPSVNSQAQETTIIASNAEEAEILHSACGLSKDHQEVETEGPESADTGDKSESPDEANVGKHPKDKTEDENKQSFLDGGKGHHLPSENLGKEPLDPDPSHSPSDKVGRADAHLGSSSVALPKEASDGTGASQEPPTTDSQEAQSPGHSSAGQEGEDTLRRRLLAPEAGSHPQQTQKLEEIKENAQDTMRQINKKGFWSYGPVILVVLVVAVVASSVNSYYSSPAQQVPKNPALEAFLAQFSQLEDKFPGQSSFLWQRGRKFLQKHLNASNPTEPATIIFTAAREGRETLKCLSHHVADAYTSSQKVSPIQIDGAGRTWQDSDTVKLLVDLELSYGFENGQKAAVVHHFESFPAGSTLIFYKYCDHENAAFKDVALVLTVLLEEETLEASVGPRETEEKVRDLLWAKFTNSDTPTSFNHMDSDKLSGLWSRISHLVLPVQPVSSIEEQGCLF
- ASSAY_COMMENT: small molecules binding lysate-expressed LULL1 – cell lysate, human LULL1 lysate, 635/667 nm fluorescence, primary screen (AID 1092);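 also: probe is lysate of COS7 cells overexpressing human LULL1; score merges per-feature 667 nm fluorescence with signal-to-noise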
- MEASUREMENT_CONDITIONS: small-molecule microarray, hLULL1 lysate binding, 635 nm fluorescence; higher = more signal
No unit in the answer, please; the number alone is enough.

**Query** Provide one value: measured composite z-score of C=CCC(OC(C)=O)[C@@H]1[C@@H](N(Cc2ccc(-c3cccc(C(F)(F)F)c3)o2)C(=O)Cc2ccc(OC)cc2)c2cc(OCCCO)ccc2N1C(=O)c1ccc2ccccc2c1 (stereo partly specified)
**Result** 0.589

**Query** Provide one value: measured composite z-score of C=C(C)[C@@H]1CC=C(C(O)C2C=CC3C(=O)NC(=O)C3N2Nc2ccc(Cl)cc2Cl)CC1 (stereo partly specified)
**Result** 2.91

**Query** Provide one value: measured composite z-score of CC(C)CN1C(=O)[C@@]2(c3ccc([N+](=O)[O-])cc3)CC(=O)N(C3CCCCC3)[C@@H]2c2ccc(CO)cc21
**Result** -0.709

**Query** Provide one value: measured composite z-score of COC(=O)C(CC#Cc1ccc2c(c1)[C@]1(C(=O)N2)[C@H](c2ccccc2OCCO)N2[C@H](c3ccccc3)[C@H](c3ccccc3)OC(=O)[C@H]2[C@@H]1C(N)=O)C(=O)OC
**Result** 2.93

**Query** Provide one value: measured composite z-score of C=CCC(OC(C)=O)[C@@H]1[C@@H](N(Cc2cc3ccccc3o2)C(=O)Cc2ccc(OC)cc2)c2cc(OCCCO)ccc2N1C(=O)c1ccc2ccccc2c1 (stereo partly specified)
**Result** -0.266

**Query** Provide one value: measured composite z-score of COCCOC(=O)N1C(=O)[C@@]2(c3cc(C#CCCO)ccc31)[C@H](c1ccc(O)cc1)N1[C@H](c3ccccc3)[C@H](c3ccccc3)OC(=O)[C@H]1[C@@H]2C(=O)N1CCN(c2ncccn2)CC1
**Result** 3.17
